TARGET SYSTEM: p70S6K (Homo sapiens)
Sequence (P23443 whole entry): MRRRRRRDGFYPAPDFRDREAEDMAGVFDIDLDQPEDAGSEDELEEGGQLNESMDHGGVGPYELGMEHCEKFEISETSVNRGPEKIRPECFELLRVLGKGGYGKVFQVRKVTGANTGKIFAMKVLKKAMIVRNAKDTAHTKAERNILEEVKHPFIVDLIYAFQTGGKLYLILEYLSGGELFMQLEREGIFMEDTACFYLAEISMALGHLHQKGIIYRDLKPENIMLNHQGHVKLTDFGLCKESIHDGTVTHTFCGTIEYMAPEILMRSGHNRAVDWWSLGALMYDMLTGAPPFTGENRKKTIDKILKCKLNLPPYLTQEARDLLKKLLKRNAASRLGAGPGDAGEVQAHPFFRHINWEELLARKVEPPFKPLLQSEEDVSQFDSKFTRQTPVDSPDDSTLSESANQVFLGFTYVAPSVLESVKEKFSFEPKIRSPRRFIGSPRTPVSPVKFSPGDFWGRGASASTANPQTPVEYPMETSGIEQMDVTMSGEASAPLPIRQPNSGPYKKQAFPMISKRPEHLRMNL
ASSAY OVERVIEW: Luciferase-coupled chemiluminescence kinase assay (ATP consumption)
Type: biochemical
CONDITION: Table 1; class symbols per key
pIC50: −log10 of the molar value.
This section presents compounds with their documented pIC50 values.

Known results for compounds:
COMPOUND	pIC50
Cc1c(CCC[n+]2ccccc2)cc(-c2ccccc2)cc1N1CCN(c2ncnc3[nH]nc(Br)c23)CC1	> 7.00
Cc1c(NCCN2CCCC2)cc(OCC2CCC2)cc1N1CCN(c2ncnc3[nH]nc(Br)c23)CC1	> 7.00
Brc1n[nH]c2ncnc(N3CCN(c4nccc(-c5ccco5)n4)CC3)c12	6.00 to 7.00
CCc1n[nH]c2ncnc(N3CCN(c4nccc5ccccc45)CC3)c12	> 7.00
CCc1n[nH]c2ncnc(N3CCN(c4cc(OCC(F)(CF)CF)cc(NCCN5CCCC5)c4C)CC3)c12	> 7.00

# compound "Cc1cc(N2CCN(c3ncnc4[nH]nc(Br)c34)CC2)c2ccccc2n1" ; its pIC50 = > 7.00

Lab book: pIC50 of "Cc1c(NCCN(C)C)cc(C(=O)Nc2ccccc2)cc1N1CCN(c2ncnc3[nH]nc(Br)c23)CC1" noted as > 7.00

Cc1c(NCCN2CCCC2)cc(OCC2CCCO2)cc1N1CCN(c2ncnc3[nH]nc(Br)c23)CC1 (stereo not drawn) yielded pIC50 of > 7.00

Measured pIC50, "Cc1c(CCCN2CCCCC2)cc(Cl)cc1N1CCN(c2ncnc3[nH]nc(C(F)(F)F)c23)CC1" : > 7.00

According to the records, this compound "CCc1n[nH]c2ncnc(N3CCN(c4nc(C)cnc4C)CC3)c12" displays pIC50 of 6.00 to 7.00

----------
The following compounds are shown together with reported IC50 values.
TARGET SYSTEM: AktK (Homo sapiens)
Sequence (P31749 whole entry): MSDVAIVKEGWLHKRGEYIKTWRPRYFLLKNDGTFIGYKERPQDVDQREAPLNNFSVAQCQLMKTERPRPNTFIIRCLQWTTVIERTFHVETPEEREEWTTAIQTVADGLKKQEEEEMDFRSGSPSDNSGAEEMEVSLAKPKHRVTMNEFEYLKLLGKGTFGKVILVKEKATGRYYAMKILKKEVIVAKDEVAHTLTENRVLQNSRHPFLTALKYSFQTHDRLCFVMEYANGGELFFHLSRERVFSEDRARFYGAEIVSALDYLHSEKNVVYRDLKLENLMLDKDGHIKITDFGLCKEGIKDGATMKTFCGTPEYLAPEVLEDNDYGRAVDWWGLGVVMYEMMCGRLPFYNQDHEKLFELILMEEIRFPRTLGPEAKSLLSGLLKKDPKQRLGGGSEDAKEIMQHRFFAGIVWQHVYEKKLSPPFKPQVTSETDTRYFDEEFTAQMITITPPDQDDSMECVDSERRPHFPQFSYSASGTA
ASSAY OVERVIEW: Luciferase-coupled chemiluminescence kinase assay (ATP consumption)
Format: biochemical
CONDITION: Table 1; class symbols per key; read-out: AKT-1 IC50

Reference set, count: 6
SMILES INPUT	TARGET SYSTEM	METRIC	REPORTED RESULT
Clc1cccc(N2CCN(c3ncnc4[nH]nc(Br)c34)CC2)c1	AktK (Homo sapiens)	IC50	≥ 10000 nM
Cc1c(NCCN2CCCC2)cc(OCC(F)(CF)CF)cc1N1CCN(c2ncnc3[nH]nc(C#CCO)c23)CC1	AktK (Homo sapiens)	IC50	< 100 nM
CCc1n[nH]c2ncnc(N3CCN(c4cc(C(=O)Nc5ccccc5)cc(Br)c4C)CC3)c12	AktK (Homo sapiens)	IC50	100 to 1000 nM
Cc1c(NCCN2CCCC2)cc(OCC(F)(CF)CF)cc1N1CCN(c2ncnc3[nH]nc(Br)c23)CC1	AktK (Homo sapiens)	IC50	< 100 nM
CCN(CC)CCCOc1cc(Cl)cc(N2CCN(c3ncnc4[nH]nc(C(F)(F)F)c34)CC2)c1C	AktK (Homo sapiens)	IC50	100 to 1000 nM
CCc1n[nH]c2ncnc(N3CCN(c4cc(OCc5ccccc5)cc(NCCN5CCCC5)c4C)CC3)c12	AktK (Homo sapiens)	IC50	100 to 1000 nM

# compound "Cc1c(NCCN2CCCC2)cc(C(=O)NC(C)(C)C)cc1N1CCN(c2ncnc3[nH]nc(Br)c23)CC1" ; its IC50 = < 100 nM
